These entries and their values trace back to the supplement of paper PMC10567573.

The entries below come with measured protein stability index values attached.
B1: RHOBTB2 (parent)
chain: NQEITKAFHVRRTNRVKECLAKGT

- Variants of: B1
- PROTOCOL DESCRIPTION: protein stability index of a GFP-peptide fusion (GPS, HEK-293T) (PSI 1-6); higher = more stable;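 also: lentivirally expressed fusions sorted by FACS into six bins by GFP to DsRed ratio, PSI derived from sequencing read proportions per bin multiplied by bin number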
- COND: c terminus: a fixed tail appended
Form: value (number only, do not type unit).

For orientation, consider the following solved cases.
{"columns": ["MUTATION ID", "protein stability index"],
 "data": [
  ["R11S", 3.99],
  ["K22N", 3.18],
  ["K17P", 2.4],
  ["R11G", 4.05],
  ["V10R", 3.91]
]}

Return reported protein stability index; argument: G23P
3.25

Return reported protein stability index; argument: R11I
2.43

Return reported protein stability index; argument: K6H
3.87

Return reported protein stability index; argument: E3N
3.38

Return reported protein stability index; argument: K22Q
3.28

Return reported protein stability index; argument: K6Q
3.18
